testMethodNotes: LAP4-GFP expression modulators in yeast, confirmation, cell-based, cherry picks, flow cytometry, mother/daughter gates (AID 2271);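 note: ratio of sample to DMSO plate mean so 100% equals DMSO level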
details: S. cerevisiae LAP4-GFP strain, 3 h, measured here: mother cell gate response, at 10 µM, stronger effect = higher value, 100 means same as DMSO control
metricName: GFP response relative to DMSO (%)

compound	readoutUnits	quantitativeResult
CC(C)COC(=O)NCC12C=CC(O1)C1C(=O)N(c3ccc(Cl)cc3)C(=O)C12 (stereo not given)	%	99.5
CCc1nnc(N2C(=O)c3cccc4cccc(c34)C2=O)s1	%	94.4
O=c1[nH]n(Cc2ccccc2)c2ccccc12	%	103
Cc1cccc(NC(=O)c2nc(S(=O)(=O)Cc3ccccc3)ncc2Cl)c1	%	137
CCOC(=O)c1c(C)[nH]c(C)c1C(=O)COC(=O)c1cc2ccccc2cc1O	%	109

* * *

Recorded measurements of GFP response relative to DMSO, one per entry
testMethodNotes: LAP4-GFP expression modulators in yeast, confirmation, cell-based, cherry picks, flow cytometry, mother/daughter gates (AID 2271);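 note: ratio of sample to DMSO plate mean so 100% equals DMSO level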
details: S. cerevisiae LAP4-GFP strain, 3 h, measured here: mother cell gate response, at 10 µM, stronger effect = higher value, 100 means same as DMSO control
metricName: GFP response relative to DMSO (%)

smilesData	quantitativeResult
Cc1ccc(C(=O)Nc2nnc(CC(=O)N/N=C/c3ccc(O)c(O)c3)s2)cc1	95.4
Cc1ccc(S(=O)(=O)N(Cc2ccc(F)cc2)Cc2ccco2)cc1	104
COc1ccc(N=Cc2cc(Cc3ccccc3Cl)cc([N+](=O)[O-])c2O)cc1OC	147
Cc1ccc(/C=C/C(=O)c2ccc(C)cc2)cc1	96.5
CN(C)S(=O)(=O)c1cc(NC(=O)CN2CCOCC2)ccc1Cl	96.4
O=[N+]([O-])c1cc(/C=N/O)ccc1Oc1ccccc1Cl	134
O=C(N=Nc1c(O)[nH]c2ccccc12)c1ccco1	102
CCC(=O)Oc1oc(-c2ccccc2)nc1C=Nc1ccc(C)cc1	113
CCN(CC)Cc1csc2ccc(Br)cc12	99.3
COc1ccccc1C(=O)NNC(=O)C(=O)Nc1cccc(Cl)c1C	109
Cc1ccc(CN2CCSc3sccc3C2=O)cc1	145
CCCN(Cc1nnc(-c2ccccc2Cl)o1)C(=O)c1cc([N+](=O)[O-])cc([N+](=O)[O-])c1	98.4
CCN(Cc1ccccc1)S(=O)(=O)c1ccc(C(=O)Nc2nnc(-c3ccccc3OC)o2)cc1	94
O=C(Sc1cccc2cccnc12)c1ccccc1Br	153

* * *

testMethodNotes: modulators of MEP2-GFP levels in yeast, confirmation, S. cerevisiae, flow cytometry GFP, cherry picks (AID 2272);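 note: ratio of well signal to plate DMSO mean so 100% equals DMSO level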
details: S. cerevisiae MEP2-GFP strain, 3 h, at 10 µM, stronger effect = higher value
Recorded measurements of GFP response vs DMSO, one per entry

molecule	readoutUnits	GFP response vs DMSO
CN(C)c1ccc(/C=C/c2cc[n+](C)cc2)cc1	%	215
O=S(=O)(c1cccc(C(F)(F)F)c1)c1ccc(O)cn1	%	100
COc1ccc(N(CC(=O)N/N=C/c2cc(OC)ccc2OC)S(=O)(=O)c2ccccc2)cc1	%	96.2
COC(=O)c1ccc(C(=O)NC(=S)Nc2ccc3nc(SC)sc3c2)cc1	%	101
Oc1c(CN2CCN(c3ccc(F)cc3)CC2)cc(Cl)c2cccnc12	%	187
COC(=O)c1cc(N2C(=O)C3C(C2=O)C2(C)C=CC3(C)O2)ccc1Cl (configuration not stated)	%	110
C/C(=N\NC(=O)c1ccc(Cl)cc1)c1cccc(NC(=O)C(C)C)c1	%	96.2
Cc1c(C(=O)NCCSCc2cccc(C(F)(F)F)c2)cnn1-c1ccc(F)cc1	%	104
CC(C)(C)C(=O)NCC12C=CC(O1)C1C(=O)N(c3ccccc3)C(=O)C12 (configuration not stated)	%	110
O=[N+]([O-])c1ccc(N=Nc2c(Cl)cc(O)cc2Cl)cc1	%	112
CCCCN(CCCC)S(=O)(=O)c1ccc(C(=O)Nc2nnc(COC)o2)cc1	%	149
O=C(OCCCOC(=O)c1ccc(Br)o1)c1ccc(Br)o1	%	103

Sourced from PubChem BioAssay
